Data provenance is ChEMBL document CHEMBL4689842.

# Tested on: HEK-293T
# PROTOCOL_SUMMARY: Multiplex assay against HEK293T
# Assay type: toxicity, cell-based
# REPORTED_CONDITIONS: human, 24 h, 10 µM, compound concentration 10 uM, replicate 1
# binarize Population Apoptotic (%): threshold 60% inclusive, high side 1 (yes), low side 0 (no)

COc1cc2ncn(-c3cc(OCc4ccccc4C(F)(F)F)c(C(N)=O)s3)c2cc1OC [GW843682X] :: 1 (yes)

Request: Reported Population Apoptotic (%) reaches at least 60% for "CC(C)(C)NC[C@H](O)COc1nsnc1N1CCOCC1" ?
Result: 0 (no)

Request: Reported Population Apoptotic (%) reaches at least 60% for "CNC(=O)Nc1ccc(-c2nc(N3CC4CCC(C3)O4)c3cnn(C4CCC5(CC4)OCCO5)c3n2)cc1" ?
Result: 1 (yes)

Request: Reported Population Apoptotic (%) reaches at least 60% for "CNC(=O)Nc1ccc2c(c1)[C@@]1(CC2)OC(=O)N(CC(=O)N(Cc2ccc(F)cc2)[C@@H](C)C(F)(F)F)C1=O" ?
Result: 0 (no)

Request: Reported Population Apoptotic (%) reaches at least 60% for "COc1ccccc1CN[C@H]1C2CCN(CC2)[C@H]1C(c1ccccc1)c1ccccc1" ?
Result: 1 (yes)

Request: Reported Population Apoptotic (%) reaches at least 60% for "CC(C)c1noc(N2CCC(COc3ccc(-c4ccc(S(C)(=O)=O)cc4)nc3)CC2)n1" ?
Result: 0 (no)

Request: Reported Population Apoptotic (%) reaches at least 60% for "COC(=O)C1=C(C)NC(C)=C(C(=O)OCCCN2CCC(c3ccccc3)(c3ccccc3)CC2)[C@H]1c1cccc([N+](=O)[O-])c1" ?
Result: 1 (yes)

Request: Reported Population Apoptotic (%) reaches at least 60% for "COc1cc(Nc2nccc(-c3cnn4nc(OC)ccc34)n2)cc(C(F)(F)F)c1" ?
Result: 1 (yes)

---

# Tested on: U2OS
# PROTOCOL_SUMMARY: Multiplex assay against U2OS
# Format: toxicity, cell-based
# REPORTED_CONDITIONS: human, 24 h, 10 µM, compound concentration 10 uM, replicate 2
The following compounds are listed with their measured Total Cell Count values.
Answer with a number only.

CC1=C(C(=O)Nc2cc3cn[nH]c3cc2F)C(c2ccc(C(F)(F)F)cc2)CC(=O)N1 (configuration not stated) :: 119
Cc1ccc2c(c1)c1c(n2CCc2ccc(C)nc2)CCN(C)C1 [LATREPIRDINE] :: 119
COc1ccc(-c2ccc3ncc4c(c3c2)n(-c2ccc(N3CCNCC3)c(C(F)(F)F)c2)c(=O)n4C)cn1.O=C(O)/C=C\C(=O)O [BGT-226] :: 614
Cc1c[nH]c2nccc(Oc3c(F)cc(Nc4cc(Cl)nc(N)n4)cc3F)c12 [BAY-549] :: 59

Lab note: measured Total Cell Count of "Cl.O=C(O)c1cc(-c2ccc(C3CCNCC3)cc2)c2ccc(-c3ccc(C(F)(F)F)cc3)cc2c1" was 56

Lab note: measured Total Cell Count of C=CC(=O)Nc1ccc2[nH]c(=O)n(C3CCN(Cc4ccc(-c5nc6cc[nH]c(=O)c6cc5-c5ccccc5)cc4)CC3)c2c1 [Borussertib] was 121

Lab note: measured Total Cell Count of COC(=O)C1=C(C)NC(C)=C(C(=O)OCCCN2CCC(c3ccccc3)(c3ccccc3)CC2)[C@H]1c1cccc([N+](=O)[O-])c1 [NIGULDIPINE] was 85
